# Test system: ACHN renal
# assay-procedure: NCI tumour cell line growth inhibition, 48 h
recorded-endpoint: TGI (µM)

1. COC(=O)c1cc2oc(/C=C3\SC(=S)N(NC(C)=O)C3=O)cc2n1Cc1ccccc1: 10.5
2. CCOC(=O)C#Cc1c(CC(=O)OCC)nnn1[C@H]1O[C@@H](CO)[C@@H]2OC(C)(C)O[C@@H]21: 4.11

----------
Measured TGI by item
# Tested on: HOP-92 NSCLC
# assay-procedure: NCI tumour cell line growth inhibition, 48 h
recorded-endpoint: TGI (µM)

1. CCN(CC)CCC(=O)c1ccc(Oc2ccccc2)cc1: 30.1
2. N=C(N)c1ccc(-c2ccc(-c3cccs3)s2)nc1: 2.23
3. CN(C)/C=C/c1nnnn1-c1ccc(I)cc1: 34.7
4. NCCCCN(Cc1nc2ccccc2[nH]1)[C@H]1CCCc2cccnc21: 27.1
5. CC1OC(OC2C(O[C@@H]3C[C@@H]4CC[C@@H]5[C@H](CC[C@]6(C)C7C(C[C@@H]56)O[C@]5(CC[C@@H](C)CO5)[C@H]7C)[C@@]4(C)C[C@H]3O)OC(CO)C(O)C2O)C(O)C(O)C1O (stereo partly drawn): 6.25
6. CSC1C(=O)c2ccccc2/C(=N/Nc2nc3ccccc3s2)C1C (stereo not drawn): 25.2
7. COc1ccc(/C=C2\CN(C)CC3C2=NC(=S)NC3c2ccc(OC)cc2)cc1 (stereo not drawn): 94.3
8. Clc1ccc2c(c1)-c1ccccc1C1=NCCN12: 3.29
